Compiled literature pIC50, tested on Rho-associated protein kinase 1 (Homo sapiens, UniProt Q13464).
Please treat pIC50 as minus the base-10 logarithm of the molar concentration.

[[record]]
compound = "COc1cc(C(=O)NCc2cccc(CN(C)C)c2)ccc1-c1cn[nH]c1"
assayed_target = "Rho-associated protein kinase 1 (Homo sapiens, UniProt Q13464)"
quantity_kind = "pIC50"
reported_result = 5.60

[[record]]
compound = "COc1cc(C(=O)N[C@@H](c2ccccc2)[C@H](O)CO)ccc1-c1cn[nH]c1"
assayed_target = "Rho-associated protein kinase 1 (Homo sapiens, UniProt Q13464)"
quantity_kind = "pIC50"
reported_result = 8.07

[[record]]
compound = "O=C(c1cc2ccc(-c3nccc(Nc4ccc5[nH]ncc5c4)n3)cc2[nH]1)N1CCC2(CCNCC2)CC1"
assayed_target = "Rho-associated protein kinase 1 (Homo sapiens, UniProt Q13464)"
quantity_kind = "pIC50"
reported_result = 5.83


Attention now turns to another entry.
Field: pIC50 (Rho-associated protein kinase 1 (Homo sapiens, UniProt Q13464)). Entry: COc1cccc(C(CCN)NC(=O)c2cccc(-c3ccc4[nH]ncc4c3)c2)c1 (centres unmarked)
7.62

====

Compiled from multiple publications: IC50 readings for UniProt Q13464.
Categories are defined by ranges of IC50, namely I: < 7 nM; II: ≥ 7 nM and < 400 nM; III: ≥ 400 nM

# count of solved cases: 5
[[record]]
compound = "CN1C(=O)[C@@H](Cc2ccc(-c3ccncc3)cc2)NC(=O)c2cccc(Cl)c21"
assayed_target = "UniProt Q13464"
group = "III"

[[record]]
compound = "CC1=C(C(=O)Nc2ccc3[nH]ncc3c2)C(c2ccc(F)c(C(=O)NCc3c(Cl)cccc3Cl)c2)NC(=O)N1 (stereo not shown)"
assayed_target = "UniProt Q13464"
group = "III"

[[record]]
compound = "COc1cc(C(=O)NC[C@H](C)c2ccccc2)ccc1-c1cn[nH]c1"
assayed_target = "UniProt Q13464"
group = "II"

[[record]]
compound = "COc1cc(C(=O)NCc2ccccc2C)ccc1-c1cn[nH]c1"
assayed_target = "UniProt Q13464"
group = "II"

[[record]]
compound = "O=C(NC1CCCN(C2CCOCC2)C1)c1cc2ccc(-c3nccc(Nc4ccc5[nH]ncc5c4)n3)cc2[nH]1 (stereo not shown)"
assayed_target = "UniProt Q13464"
group = "III"


For the record "O=C(c1cc2ccc(-c3nccc(Nc4ccc(-c5cn[nH]c5)cc4)n3)cc2[nH]1)N1CC2(CNC2)C1" , report the class its IC50 corresponds to.
III

Kindly state the category for this compound: "COc1cc(C(=O)N(C)CCc2ccccc2)ccc1-c1cn[nH]c1"
II

Into which category would you place "N[C@H](C(=O)Nc1ccc(-c2ccncc2)cc1)c1ccccc1" ?
II

Hello team, could you let me know which band the following compound falls into: "COc1cccc(CN(C)C(=O)Nc2cc(-c3ccncc3)[nH]n2)c1"
II

Which bin, given its IC50, does "COC(=O)N1CCC(NC(=O)c2cccc([C@@H](CO)NC(=O)c3ccc(-c4ccncc4)cc3)c2)CC1" occupy?
I

Pick a category. Item: "COc1cc(C(=O)NCc2cccc(C(=O)Nc3nc4c(s3)CNCC4)c2)ccc1-c1cn[nH]c1"
I

Which bin should I file "COC(=O)N1CCC(CNC(=O)c2cccc([C@@H](CO)NC(=O)c3ccc(-c4ccncc4)cc3)c2)CC1" under?
I
